Each entry below lists one item and its recorded EC50 value.
# System: Toxoplasma gondii
# EXPERIMENT: Antiparasitic activity against Toxoplasma gondii tachyzoites infected in human TerT cells assessed as decrease in parasite viability by red fluorescent protein based fluorescence method
# Format: functional
# PROTOCOL CONDITIONS: read-out: ED50 (the source's name)
QUANTITY MEASURED: EC50

CCCCCNCC(F)(P(=O)(O)O)P(=O)(O)O :: > 10 µM
CCCCNCC(F)(P(=O)(O)O)P(=O)(O)O :: > 10 µM
CCCCCCCCCCS(=O)(=O)CC(P(=O)(O)O)P(=O)(O)O :: 0.11 µM
O=P(O)(O)C(CNC1CCCCCC1)P(=O)(O)O :: > 20 µM
CCCCCCCCCCSCC(P(=O)(O)O)P(=O)(O)O :: 1.8 µM
CCCCCCCCCC(F)(P(=O)(O)O)P(=O)(O)O :: > 10 µM
